Values compiled from ChEMBL document CHEMBL3861996.

Target: Adrenergic receptor alpha-2 (Rattus norvegicus, UniProt P22086+P19328+P22909)
Assay: Displacement of [3H]-Clonidine from alpha2 adrenergic receptor in rat brain cerebral cortex membranes by liquid scintillation counting analysis
Type: cell membranes, Membrane
quantity: Ki (nM)

{"chemical string": "COc1ccccc1OCCN1CCC(CNS(=O)(=O)c2cncc3ccccc23)CC1", "Ki [nM]": 695}
{"chemical string": "COc1ccccc1OCCN1CCC(NS(=O)(=O)c2cncc3ccccc23)CC1", "Ki [nM]": 297}
{"chemical string": "COc1ccccc1OCCN1CCC(NS(=O)(=O)c2cccc3cccnc23)CC1", "Ki [nM]": 131}
{"chemical string": "COc1ccccc1OCCN1CCC(CNS(=O)(=O)c2cc(Cl)ccc2F)CC1", "Ki [nM]": 1345}
{"chemical string": "COc1ccccc1OCCN1CCC(NS(=O)(=O)c2cc(Cl)ccc2F)CC1", "Ki [nM]": 129}

[1] COc1ccccc1OCCN1CCC(CNS(=O)(=O)c2cccc(Cl)c2)CC1
[2] CC(C)Oc1ccccc1OCCN1CCC(NS(=O)(=O)c2cccc3cccnc23)CC1
Pick one: 1 or 2 . Which has the bigger Ki number? # reply format: chosen label
1

----------
Biological target: Adrenergic receptor alpha-2 (Rattus norvegicus, UniProt P22086+P19328+P22909)
Test: Displacement of [3H]-Clonidine from alpha2 adrenergic receptor in rat brain cerebral cortex membranes by liquid scintillation counting analysis
Type: cell membranes, Membrane
quantity: Ki (nM)

{"chemical string": "CC(C)Oc1ccccc1OCCN1CCC(CNS(=O)(=O)c2cc(Cl)ccc2F)CC1", "Ki / nM": 870}
{"chemical string": "CC(C)Oc1ccccc1OCCN1CCC(CNS(=O)(=O)c2cncc3ccccc23)CC1", "Ki / nM": 578}
{"chemical string": "COc1ccc(S(=O)(=O)NCC2CCN(CCOc3ccccc3OC)CC2)cc1OC", "Ki / nM": 644}

----------
Species: Rattus norvegicus
Experiment: Selectivity ratio of Ki for alpha2 adrenergic receptor in rat brain cerebral cortex membranes to Ki for alpha1 adrenergic receptor in rat brain cerebral cortex membranes
Format: cell membranes
This listing pairs compounds with measured Ratio Ki.

Below, 2 compounds whose answers are already recorded.
{"chemical string": "COc1ccccc1OCCN1CC[C@H](NS(=O)(=O)c2cccc(Cl)c2F)C1", "quantity": "Ratio Ki", "value": "> 29"}
{"chemical string": "CC(C)Oc1ccccc1OCCN1CC[C@H](NS(=O)(=O)c2cc(Cl)ccc2F)C1", "quantity": "Ratio Ki", "value": "> 41"}

Which Ratio Ki value belongs to CC(C)Oc1ccccc1OCCN1CC[C@H](NS(=O)(=O)c2cccc(Cl)c2F)C1 ?
> 109
